The reported measurements were obtained from ChEMBL document CHEMBL4613324.

- target_desc: Cytochrome P450 2B6 (Homo sapiens)
- Sequence (P20813 whole entry): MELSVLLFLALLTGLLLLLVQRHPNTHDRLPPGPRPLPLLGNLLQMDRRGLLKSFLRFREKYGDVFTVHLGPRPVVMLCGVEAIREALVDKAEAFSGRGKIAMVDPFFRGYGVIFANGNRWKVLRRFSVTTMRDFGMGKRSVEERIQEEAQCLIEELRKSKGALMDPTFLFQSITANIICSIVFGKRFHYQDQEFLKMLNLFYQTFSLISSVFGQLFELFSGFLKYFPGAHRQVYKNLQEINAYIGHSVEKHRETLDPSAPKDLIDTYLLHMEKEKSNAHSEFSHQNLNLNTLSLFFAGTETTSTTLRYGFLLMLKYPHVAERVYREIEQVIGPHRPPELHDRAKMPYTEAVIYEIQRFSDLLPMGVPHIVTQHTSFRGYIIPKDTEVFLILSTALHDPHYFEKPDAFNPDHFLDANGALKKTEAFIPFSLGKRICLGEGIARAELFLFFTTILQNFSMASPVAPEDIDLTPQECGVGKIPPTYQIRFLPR
- measurement_description: Inhibition of recombinant human CYP2B6
- Type: ADME
measured_attribute: IC50

Exam item: Request the reported IC50 associated with CS(=O)(=O)n1cc2c(n1)CN([C@@H]1C[C@H](N)[C@@H](c3cc(F)ccc3F)O[C@@H]1C(F)(F)F)C2
Marked response: > 100 µM

###

- target_desc: Cytochrome P450 2C8 (Homo sapiens, UniProt P10632)
- Sequence (P10632 whole entry): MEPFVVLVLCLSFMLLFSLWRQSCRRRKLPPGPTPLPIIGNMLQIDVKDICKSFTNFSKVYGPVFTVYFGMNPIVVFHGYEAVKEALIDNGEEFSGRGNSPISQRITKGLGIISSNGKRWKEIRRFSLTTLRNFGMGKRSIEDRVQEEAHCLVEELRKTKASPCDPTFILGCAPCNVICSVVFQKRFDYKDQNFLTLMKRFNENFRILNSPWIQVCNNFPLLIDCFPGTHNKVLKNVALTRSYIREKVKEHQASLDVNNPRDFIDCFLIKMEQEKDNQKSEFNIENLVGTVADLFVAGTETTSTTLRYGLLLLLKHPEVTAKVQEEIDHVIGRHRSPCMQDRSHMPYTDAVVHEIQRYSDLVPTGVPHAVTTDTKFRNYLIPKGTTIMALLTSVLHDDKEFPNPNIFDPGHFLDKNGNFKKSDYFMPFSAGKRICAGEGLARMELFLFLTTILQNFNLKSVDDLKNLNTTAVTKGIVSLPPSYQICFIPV
- measurement_description: Inhibition of recombinant human CYP2C8
- Format: ADME
pIC50: −log10 of the molar value.
measured_attribute: pIC50

Exam item: Request the reported pIC50 associated with CS(=O)(=O)n1cc2c(n1)CN([C@@H]1C[C@H](N)[C@@H](c3cc(F)ccc3F)O[C@@H]1C(F)(F)F)C2
Marked response: < 4.00

###

- target_desc: Cytochrome P450 1A2 (Homo sapiens, UniProt P05177)
- Sequence (P05177 whole entry): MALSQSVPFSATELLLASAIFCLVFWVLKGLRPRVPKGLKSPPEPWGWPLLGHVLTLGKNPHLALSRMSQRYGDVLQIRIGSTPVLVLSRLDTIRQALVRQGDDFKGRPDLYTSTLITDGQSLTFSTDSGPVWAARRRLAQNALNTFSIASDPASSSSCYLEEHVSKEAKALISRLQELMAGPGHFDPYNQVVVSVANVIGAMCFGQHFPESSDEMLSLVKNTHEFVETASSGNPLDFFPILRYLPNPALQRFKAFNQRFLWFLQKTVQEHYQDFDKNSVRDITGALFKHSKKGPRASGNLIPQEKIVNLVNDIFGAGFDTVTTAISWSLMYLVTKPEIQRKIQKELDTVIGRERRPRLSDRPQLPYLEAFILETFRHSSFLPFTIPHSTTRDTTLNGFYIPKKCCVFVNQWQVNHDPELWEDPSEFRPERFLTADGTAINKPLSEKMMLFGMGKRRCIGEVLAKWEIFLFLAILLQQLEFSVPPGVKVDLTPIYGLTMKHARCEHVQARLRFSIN
- measurement_description: Inhibition of recombinant human CYP1A2
- Type: ADME
measured_attribute: IC50

Exam item: Query IC50 on Cytochrome P450 1A2 (Homo sapiens, UniProt P05177) for CS(=O)(=O)n1cc2c(n1)CN([C@@H]1C[C@H](N)[C@@H](c3cc(F)ccc3F)O[C@@H]1C(F)(F)F)C2
Marked response: > 100 µM
